assay.protocol: chemical genetic growth profiling, strain panel (AID 1159580);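 further: tested at 20 µM; growth read once vehicle control cultures reached saturation at 30 °C; 1 = growth at the plate median or of vehicle wells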
measurement.parameters: S. cerevisiae deletion strains, growth OD, locus YER167W, strain BCK2
Screen size: about 5,500 compounds; about 2,000 (36%) were called active. Another 18% or so got no clear call; they are omitted. No stated cut-off is given here; in the data, active means normalized growth mostly below about 0.91 (no sharp cut-off); inconclusive means no clear call, values can overlap the other calls; inactive means mostly above about 0.92. Some of the results follow.
Outcome codes: active, inactive

[[record]]
compound = "CC(=O)NCCc1c[nH]c2ccc(O)cc12"
group = "inactive"

[[record]]
compound = "CCC(=O)OC1[C@@H]2CC3=C4CC(=O)O[C@@H](c5ccoc5)[C@]4(C)CCC3[C@@](C)(C2=O)[C@@H](CC(=O)OC)C1(C)C (stereo not given in full)"
group = "inactive"

[[record]]
compound = "O=C(O)C(O)C(O)C(=O)O (stereo not given)"
group = "inactive"

[[record]]
compound = "N[C@@H](C(=O)O)[C@@H](O)[C@H](O)[C@H](O)CO"
group = "inactive"

[[record]]
compound = "c1ccc2c(CC3=NCCN3)cccc2c1"
group = "inactive"

[[record]]
compound = "Oc1c(Cl)cc(Cl)c(Cl)c1Cc1c(O)c(Cl)cc(Cl)c1Cl"
group = "active"

[[record]]
compound = "C[C@]12CCC3c4ccc(O)cc4CCC3C1CCC2=O (stereo not given in full)"
group = "inactive"

[[record]]
compound = "CC(=O)Oc1ccc2c(c1)CCC1C2CC[C@]2(C)C(=O)CCC12 (stereo not given in full)"
group = "inactive"

[[record]]
compound = "Clc1ccc(CSC(Cn2ccnc2)c2ccc(Cl)cc2Cl)cc1 (stereo not given)"
group = "active"

[[record]]
compound = "OC[C@H]1O[C@@H](n2cnc3c(NCc4ccco4)ncnc32)[C@H](O)[C@@H]1O"
group = "inactive"

[[record]]
compound = "COc1ccc2c(=O)c(OC)c(-c3ccccc3)oc2c1"
group = "active"

[[record]]
compound = "CC1[C@H](C)OC(=O)CC(O)CC(O)CC(O)CCC(O)C(O)C[C@]2(O)CC(O)C(C(=O)O)C(CC(OC3O[C@H](C)[C@@H](O)[C@H](N)[C@@H]3O)/C=C/C=C/C=C/C=C/CC/C=C/C=C/[C@H](C)[C@H]1O)O2 (stereo not given in full)"
group = "active"

[[record]]
compound = "CC(=O)O[C@]1(C)CC[C@@]23CC1C(C)(C)[C@@H]2CC[C@H]3C"
group = "inactive"

[[record]]
compound = "CC(C)(S)[C@@H](N)C(=O)O"
group = "inactive"

[[record]]
compound = "COc1ccc2oc3ccccc3c(=O)c2c1"
group = "inactive"

[[record]]
compound = "C[C@]12CCC3c4ccc(OC(=O)CCC(=O)O)cc4CCC3C1CCC2=O (stereo not given in full)"
group = "inactive"

[[record]]
compound = "NCCCCNCCCN"
group = "inactive"

[[record]]
compound = "CC1OC(O[C@H]2/C=C/C=C/C=C/C=C/C=C/C=C/C=C/[C@H](C)[C@@H](O)[C@@H](C)[C@H](C)OC(=O)CC(O)CC(O)CCC(O)C(O)CC(O)C[C@]3(O)C[C@H](O)C(C(=O)O)C(C2)O3)C(O)[C@H](N)C1O (stereo not given in full)"
group = "inactive"

[[record]]
compound = "CC12CCC3C(=CCc4cc(O)ccc43)C1CCC2=O (stereo not given)"
group = "inactive"

[[record]]
compound = "COc1c(C)c2c(c(O)c1C/C=C(\\C)CCC(=O)O)C(=O)OC2"
group = "active"


* * *

Measured normalized growth of individual entries
assay.protocol: chemical genetic growth profiling, strain panel (AID 1159580);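 further: tested at 20 µM; growth read once vehicle control cultures reached saturation at 30 °C; 1 = growth at the plate median or of vehicle wells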
measurement.parameters: S. cerevisiae deletion strains, growth OD, locus YDR195W, strain ref2
In all, about 5,500 compounds went through this assay and about 2,000 (36%) were called active. Roughly 18% stayed inconclusive and do not appear here. This is one part of the list.
assay.metric: normalized growth

[[record]]
compound = "CC(=O)O[C@@H]1CC2C(C)(C)[C@H](O)CC[C@]2(C)C2CC[C@@]3(C)[C@H](c4ccoc4)OC(=O)C4OC43[C@@]21C (some centres undefined)"
result = "1.03 (inactive)"

[[record]]
compound = "CC(=O)O[C@@H]1CC2C(C)(C)C(=O)C3OC3[C@]2(C)C2CC[C@@]3(C)[C@H](c4ccoc4)OC(=O)C4OC43[C@@]21C (some centres undefined)"
result = "0.978 (inactive)"

[[record]]
compound = "Oc1c(Cl)cc(Cl)c(Cl)c1Cc1c(O)c(Cl)cc(Cl)c1Cl"
result = "0.126 (active)"

[[record]]
compound = "O=c1oc2ccccc2cc1O"
result = "1.01 (inactive)"

[[record]]
compound = "CC(=O)O[C@H]1C[C@@H](OC(C)=O)C(C)(C)C2C[C@@H](O)[C@]3(C)C(CC[C@@]4(C)[C@H](c5ccoc5)OC(=O)[C@H]5O[C@]543)[C@]21C (some centres undefined)"
result = "0.935 (inactive)"

[[record]]
compound = "C=CCS(=O)C[C@H](N)C(=O)O (some centres undefined)"
result = "0.986 (inactive)"

[[record]]
compound = "Cc1oncc1C(=O)Nc1ccc(C(F)(F)F)cc1"
result = "1.07 (inactive)"

[[record]]
compound = "Cc1cc(/C=C/c2ccc3cc(N(C)C)ccc3[n+]2C)c(C)n1-c1ccccc1"
result = "1.25 [resistant] (active)"

[[record]]
compound = "CC(=O)OCC(=O)[C@@]1(O)CCC2C3CCC4=CC(=O)C=CC4(C)C3[C@@H](O)C[C@@]21C (some centres undefined)"
result = "0.984 (inactive)"


* * *

assay.protocol: chemical genetic growth profiling, strain panel (AID 1159580);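 further: tested at 20 µM; growth read once vehicle control cultures reached saturation at 30 °C; 1 = growth at the plate median or of vehicle wells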
measurement.parameters: S. cerevisiae deletion strains, growth OD, locus YMR078C, strain ctf18, stronger effect = lower value
Among all 5,500 compounds or so, about 2,000 (36%) were called active. Inconclusive results (about 18%) are left out. The list shows a part of the results.
assay.metric: normalized growth

[[record]]
molecule = "NC(N)=NCCN1CCCCCCC1"
assay_metric = "normalized growth"
result_number = 1.02

[[record]]
molecule = "CC(=O)O[C@H]1C[C@@H](OC(C)=O)C(C)(C)C2C[C@@H](O)[C@]3(C)C(CC[C@@]4(C)[C@H](c5ccoc5)OC(=O)[C@H]5O[C@]543)[C@]21C (some centres not stated)"
assay_metric = "normalized growth"
result_number = 0.971

[[record]]
molecule = "c1ccc2c(CC3=NCCN3)cccc2c1"
assay_metric = "normalized growth"
result_number = 1.02

[[record]]
molecule = "CC(=O)O[C@@H]1CC2C(C)(C)C(=O)C3OC3[C@]2(C)C2CC[C@@]3(C)[C@H](c4ccoc4)OC(=O)C4OC43[C@@]21C (some centres not stated)"
assay_metric = "normalized growth"
result_number = 1.01

[[record]]
molecule = "NC(N)=NCCCCN=C(N)N"
assay_metric = "normalized growth"
result_number = 0.992

[[record]]
molecule = "CC1(C)C(=O)[C@@H]2O[C@@H]2[C@@]2(C)C1C[C@@H](O)[C@]1(C)C2CC[C@@]2(C)[C@H](c3ccoc3)OC(=O)C3OC321 (some centres not stated)"
assay_metric = "normalized growth"
result_number = 0.994

[[record]]
molecule = "O=c1cccc2n1CC1CC2CN2CCCC[C@@H]12 (some centres not stated)"
assay_metric = "normalized growth"
result_number = 0.98


* * *

Measured normalized growth of individual entries
assay.protocol: chemical genetic growth profiling, strain panel (AID 1159580);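 further: tested at 20 µM; growth read once vehicle control cultures reached saturation at 30 °C; 1 = growth at the plate median or of vehicle wells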
measurement.parameters: S. cerevisiae deletion strains, growth OD, locus YLR370C, strain arc18, stronger effect = lower value
The whole screen tested about 5,500 compounds, of which about 2,000 (36%) were called active. About 18% were inconclusive and are not listed. Some of the results follow.
assay.metric: normalized growth

[[record]]
compound = "CC(=O)O[C@H]1C[C@@H](OC(C)=O)C(C)(C)C2C[C@@H](O)[C@]3(C)C(CC[C@@]4(C)[C@H](c5ccoc5)OC(=O)[C@H]5O[C@]543)[C@]21C (stereo not given in full)"
assay_metric = "normalized growth"
result_number = 0.973

[[record]]
compound = "CC(=O)O[C@H]1CC[C@@]2(C)C(C[C@@H](OC(C)=O)[C@]3(C)C2CC[C@@]2(C)[C@H](c4ccoc4)OC(=O)[C@H]4O[C@]423)C1(C)C (stereo not given in full)"
assay_metric = "normalized growth"
result_number = 0.996

[[record]]
compound = "CC(=O)O[C@@H]1CC2C(C)(C)[C@@H](O)CC[C@]2(C)C2CC[C@@]3(C)[C@H](c4ccoc4)OC(=O)[C@H]4O[C@]43[C@@]21C (stereo not given in full)"
assay_metric = "normalized growth"
result_number = 1.01

[[record]]
compound = "CC(=O)O[C@@H]1CC2C(C)(C)C(=O)C3OC3[C@]2(C)C2CC[C@@]3(C)[C@H](c4ccoc4)OC(=O)C4OC43[C@@]21C (stereo not given in full)"
assay_metric = "normalized growth"
result_number = 0.971

[[record]]
compound = "CC(=O)O[C@@H]1CC2C(C)(C)[C@H](O)CC[C@]2(C)C2CC[C@@]3(C)[C@H](c4ccoc4)OC(=O)C4OC43[C@@]21C (stereo not given in full)"
assay_metric = "normalized growth"
result_number = 1.01

